Give Ki for every item shown.
- studySystem: PgQC (Porphyromonas gingivalis, UniProt Q7MT37)
- Construct: Ki; RA (average residual QC activity of PgQC); other: c = 1 μM; other: c = 1.5 μM; other: c = 10 μM; other: c = 100 μM; other: c = 12 μM; RA; fused on or other part: N-terminal His tag from pET28a(+), cleaved off by thrombin before the enzymatic characterisation
- experimentNotes: biochemical
- Parameters: species or system P. gingivalis
- experimentalConditions: Ki (average), inhibition of PgQC, H-Gln-AMC, 50 mM Tris-HCl, 50 mM NaCl pH 8.0, 30° C.
Give bare numbers, in nM.

Give measured Ki for every item shown.
1. Clc1ccc(CN2CCc3[nH]cnc3C2)cc1Cl
2. c1nc2c([nH]1)CCN(Cc1ccc3c(c1)OCCO3)C2
3. Fc1cc(CN2CCc3[nH]cnc3C23COC3)cc(F)c1F

1: 367; 2: 311; 3: 556
